Reported TGI values follow for various compounds
test system: DLD-1 colon; assay: NCI tumour cell line growth inhibition, 48 h

Compound: C[N+](C)(C)CC1CCCC(C[N+](C)(C)C)C1=NO (stereo not given)
TGI: > 100 µM
--
Compound: NC(N)=NNC(=O)CCn1[nH]c(=O)c(Cl)c(Cl)c1=O
TGI: > 100 µM
--
Compound: CCc1n[nH]c(=S)n1/N=C/c1ccc(-c2ccc([N+](=O)[O-])cc2)o1
TGI: > 100 µM
--
Compound: c1ccc(CNc2ccc3[nH]c4cnccc4c3c2)cc1
TGI: 31.9 µM
--
Compound: CCOc1ccc(/C=C\c2cc(OC)c(OC)c(OC)c2)cc1
TGI: > 100 µM
--
Compound: CC(=O)N(C(C)=O)c1c(N)n(C)c(=O)[nH]c1=O
TGI: > 100 µM
--
Compound: Clc1ccc(OCc2nnc3n2N=C(c2ccccc2)CS3)cc1
TGI: 44 µM
--
Compound: O=S(=O)(O)c1ccc(-c2c3nc(c(-c4ccc(S(=O)(=O)O)cc4)c4ccc([nH]4)c(-c4ccc(S(=O)(=O)O)cc4)c4nc(c(-c5ccc(S(=O)(=O)O)cc5)c5ccc2[nH]5)C=C4)C=C3)cc1
TGI: > 100 µM
--
Compound: CCOC(=O)c1sc2c(sc(=O)n2-c2ccccc2)c1O
TGI: > 100 µM
--
Compound: CN(C)CCN(C)CCC(=O)/C=C/c1ccccc1
TGI: 39.9 µM

###

tested on: HCT-15 colon; experiment: NCI tumour cell line growth inhibition, 48 h

Compound: COc1ccc2c(N=[N+]=[N-])c(-c3ccccc3)c(=O)oc2c1
TGI: > 100 µM

Compound: OCCOCCO/N=C1\C(c2c(O)[nH]c3ccccc23)=Nc2ccccc21
TGI: > 52.4 µM

Compound: Cc1[nH]n(-c2ncc(C#N)c(=O)[nH]2)c(=O)c1CCO
TGI: > 100 µM

Compound: CCOC(=O)N1CCC2C(=C(C)C(C)C3=C2C(=O)c2ccccc2C3=O)C1 (stereo unspecified)
TGI: > 10 µM

Compound: CN1CCN(CCOc2ccc(-c3cnc4c(-c5cccc(F)c5F)cnn4c3)cc2)CC1
TGI: 2.91 µM

Compound: Nc1ncnc2c1ncn2C1OC(CSC(F)F)C(O)C1O (stereo unspecified)
TGI: > 100 µM

Compound: Cc1cccc(-n2c(C)nc3ccc(NC(=S)Nc4ccccc4)cc3c2=O)c1
TGI: > 100 µM

Compound: O=C(C(Cl)Cl)N(O)c1ccccc1OCc1ccccc1
TGI: > 100 µM

Compound: COc1cc(Cl)cc(-c2nn(-c3cccc(NC(=O)c4cccc(C(F)(F)F)c4)c3)cc2-c2ccncc2)c1
TGI: > 100 µM

Compound: COC(=O)c1ccc2[nH]c(O)c(C(=Nc3ccc(N(C)C(=O)CN4CCN(C)CC4)cc3)c3cccc(OC)c3)c2c1
TGI: 7.04 µM

Compound: CC(=O)OCC1OC(n2c(C)c(C(C)=O)c(-c3ccc(Cl)cc3)c(C#N)c2=S)C(OC(C)=O)C(OC(C)=O)C1OC(C)=O (stereo unspecified)
TGI: > 100 µM

Compound: CC(C)=NNC1=NC(C)(C)P(=O)(NNc2ncccn2)S1 (stereo unspecified)
TGI: > 100 µM

Compound: CC(C)c1ccc(COCc2cc(CN3CCCC3)c(O)c3ncccc23)cc1
TGI: 2.07 µM

Compound: [N-]=[N+]=NCC1OCC(O)C(OCc2ccccc2)C1OCc1ccccc1 (stereo unspecified)
TGI: > 100 µM

Compound: CN1C(=O)C(O)CC1c1ccc(C(F)(F)F)cc1 (stereo unspecified)
TGI: > 100 µM

Compound: C/C(=N/NC(=O)c1ccccc1O)c1ccc(/C(C)=N\NC(=O)c2ccccc2O)c2nc3cc(C)c(C)cc3nc12
TGI: > 100 µM

Compound: CCOc1ccc(/C=C\c2cc(OC)c(OC)c(OC)c2)cc1
TGI: 0.286 µM

Compound: COc1ccc(-c2cc(-c3ccccc3)nc(N)c2-c2ccc3ccccc3c2)cc1
TGI: 2.92 µM

Compound: CC(=O)Oc1ccc2c3c1[C@H]1O[C@H]1c1cccc(c1-3)[C@@H]1O[C@H]21
TGI: 13.1 µM

Compound: CCOP(=O)(OCC)/C(=C\n1c(=S)[nH]c2cc(C)ccc21)C(=O)OC
TGI: > 100 µM

Compound: CC(C)Cn1cnc2c(Sc3c([N+](=O)[O-])ncn3C)nc(N)nc21
TGI: > 100 µM

Reference source for all entries: PubChem BioAssay (NCI)
